Biological target: DNA-dependent protein kinase catalytic subunit (Homo sapiens)
Sequence (P78527 whole entry): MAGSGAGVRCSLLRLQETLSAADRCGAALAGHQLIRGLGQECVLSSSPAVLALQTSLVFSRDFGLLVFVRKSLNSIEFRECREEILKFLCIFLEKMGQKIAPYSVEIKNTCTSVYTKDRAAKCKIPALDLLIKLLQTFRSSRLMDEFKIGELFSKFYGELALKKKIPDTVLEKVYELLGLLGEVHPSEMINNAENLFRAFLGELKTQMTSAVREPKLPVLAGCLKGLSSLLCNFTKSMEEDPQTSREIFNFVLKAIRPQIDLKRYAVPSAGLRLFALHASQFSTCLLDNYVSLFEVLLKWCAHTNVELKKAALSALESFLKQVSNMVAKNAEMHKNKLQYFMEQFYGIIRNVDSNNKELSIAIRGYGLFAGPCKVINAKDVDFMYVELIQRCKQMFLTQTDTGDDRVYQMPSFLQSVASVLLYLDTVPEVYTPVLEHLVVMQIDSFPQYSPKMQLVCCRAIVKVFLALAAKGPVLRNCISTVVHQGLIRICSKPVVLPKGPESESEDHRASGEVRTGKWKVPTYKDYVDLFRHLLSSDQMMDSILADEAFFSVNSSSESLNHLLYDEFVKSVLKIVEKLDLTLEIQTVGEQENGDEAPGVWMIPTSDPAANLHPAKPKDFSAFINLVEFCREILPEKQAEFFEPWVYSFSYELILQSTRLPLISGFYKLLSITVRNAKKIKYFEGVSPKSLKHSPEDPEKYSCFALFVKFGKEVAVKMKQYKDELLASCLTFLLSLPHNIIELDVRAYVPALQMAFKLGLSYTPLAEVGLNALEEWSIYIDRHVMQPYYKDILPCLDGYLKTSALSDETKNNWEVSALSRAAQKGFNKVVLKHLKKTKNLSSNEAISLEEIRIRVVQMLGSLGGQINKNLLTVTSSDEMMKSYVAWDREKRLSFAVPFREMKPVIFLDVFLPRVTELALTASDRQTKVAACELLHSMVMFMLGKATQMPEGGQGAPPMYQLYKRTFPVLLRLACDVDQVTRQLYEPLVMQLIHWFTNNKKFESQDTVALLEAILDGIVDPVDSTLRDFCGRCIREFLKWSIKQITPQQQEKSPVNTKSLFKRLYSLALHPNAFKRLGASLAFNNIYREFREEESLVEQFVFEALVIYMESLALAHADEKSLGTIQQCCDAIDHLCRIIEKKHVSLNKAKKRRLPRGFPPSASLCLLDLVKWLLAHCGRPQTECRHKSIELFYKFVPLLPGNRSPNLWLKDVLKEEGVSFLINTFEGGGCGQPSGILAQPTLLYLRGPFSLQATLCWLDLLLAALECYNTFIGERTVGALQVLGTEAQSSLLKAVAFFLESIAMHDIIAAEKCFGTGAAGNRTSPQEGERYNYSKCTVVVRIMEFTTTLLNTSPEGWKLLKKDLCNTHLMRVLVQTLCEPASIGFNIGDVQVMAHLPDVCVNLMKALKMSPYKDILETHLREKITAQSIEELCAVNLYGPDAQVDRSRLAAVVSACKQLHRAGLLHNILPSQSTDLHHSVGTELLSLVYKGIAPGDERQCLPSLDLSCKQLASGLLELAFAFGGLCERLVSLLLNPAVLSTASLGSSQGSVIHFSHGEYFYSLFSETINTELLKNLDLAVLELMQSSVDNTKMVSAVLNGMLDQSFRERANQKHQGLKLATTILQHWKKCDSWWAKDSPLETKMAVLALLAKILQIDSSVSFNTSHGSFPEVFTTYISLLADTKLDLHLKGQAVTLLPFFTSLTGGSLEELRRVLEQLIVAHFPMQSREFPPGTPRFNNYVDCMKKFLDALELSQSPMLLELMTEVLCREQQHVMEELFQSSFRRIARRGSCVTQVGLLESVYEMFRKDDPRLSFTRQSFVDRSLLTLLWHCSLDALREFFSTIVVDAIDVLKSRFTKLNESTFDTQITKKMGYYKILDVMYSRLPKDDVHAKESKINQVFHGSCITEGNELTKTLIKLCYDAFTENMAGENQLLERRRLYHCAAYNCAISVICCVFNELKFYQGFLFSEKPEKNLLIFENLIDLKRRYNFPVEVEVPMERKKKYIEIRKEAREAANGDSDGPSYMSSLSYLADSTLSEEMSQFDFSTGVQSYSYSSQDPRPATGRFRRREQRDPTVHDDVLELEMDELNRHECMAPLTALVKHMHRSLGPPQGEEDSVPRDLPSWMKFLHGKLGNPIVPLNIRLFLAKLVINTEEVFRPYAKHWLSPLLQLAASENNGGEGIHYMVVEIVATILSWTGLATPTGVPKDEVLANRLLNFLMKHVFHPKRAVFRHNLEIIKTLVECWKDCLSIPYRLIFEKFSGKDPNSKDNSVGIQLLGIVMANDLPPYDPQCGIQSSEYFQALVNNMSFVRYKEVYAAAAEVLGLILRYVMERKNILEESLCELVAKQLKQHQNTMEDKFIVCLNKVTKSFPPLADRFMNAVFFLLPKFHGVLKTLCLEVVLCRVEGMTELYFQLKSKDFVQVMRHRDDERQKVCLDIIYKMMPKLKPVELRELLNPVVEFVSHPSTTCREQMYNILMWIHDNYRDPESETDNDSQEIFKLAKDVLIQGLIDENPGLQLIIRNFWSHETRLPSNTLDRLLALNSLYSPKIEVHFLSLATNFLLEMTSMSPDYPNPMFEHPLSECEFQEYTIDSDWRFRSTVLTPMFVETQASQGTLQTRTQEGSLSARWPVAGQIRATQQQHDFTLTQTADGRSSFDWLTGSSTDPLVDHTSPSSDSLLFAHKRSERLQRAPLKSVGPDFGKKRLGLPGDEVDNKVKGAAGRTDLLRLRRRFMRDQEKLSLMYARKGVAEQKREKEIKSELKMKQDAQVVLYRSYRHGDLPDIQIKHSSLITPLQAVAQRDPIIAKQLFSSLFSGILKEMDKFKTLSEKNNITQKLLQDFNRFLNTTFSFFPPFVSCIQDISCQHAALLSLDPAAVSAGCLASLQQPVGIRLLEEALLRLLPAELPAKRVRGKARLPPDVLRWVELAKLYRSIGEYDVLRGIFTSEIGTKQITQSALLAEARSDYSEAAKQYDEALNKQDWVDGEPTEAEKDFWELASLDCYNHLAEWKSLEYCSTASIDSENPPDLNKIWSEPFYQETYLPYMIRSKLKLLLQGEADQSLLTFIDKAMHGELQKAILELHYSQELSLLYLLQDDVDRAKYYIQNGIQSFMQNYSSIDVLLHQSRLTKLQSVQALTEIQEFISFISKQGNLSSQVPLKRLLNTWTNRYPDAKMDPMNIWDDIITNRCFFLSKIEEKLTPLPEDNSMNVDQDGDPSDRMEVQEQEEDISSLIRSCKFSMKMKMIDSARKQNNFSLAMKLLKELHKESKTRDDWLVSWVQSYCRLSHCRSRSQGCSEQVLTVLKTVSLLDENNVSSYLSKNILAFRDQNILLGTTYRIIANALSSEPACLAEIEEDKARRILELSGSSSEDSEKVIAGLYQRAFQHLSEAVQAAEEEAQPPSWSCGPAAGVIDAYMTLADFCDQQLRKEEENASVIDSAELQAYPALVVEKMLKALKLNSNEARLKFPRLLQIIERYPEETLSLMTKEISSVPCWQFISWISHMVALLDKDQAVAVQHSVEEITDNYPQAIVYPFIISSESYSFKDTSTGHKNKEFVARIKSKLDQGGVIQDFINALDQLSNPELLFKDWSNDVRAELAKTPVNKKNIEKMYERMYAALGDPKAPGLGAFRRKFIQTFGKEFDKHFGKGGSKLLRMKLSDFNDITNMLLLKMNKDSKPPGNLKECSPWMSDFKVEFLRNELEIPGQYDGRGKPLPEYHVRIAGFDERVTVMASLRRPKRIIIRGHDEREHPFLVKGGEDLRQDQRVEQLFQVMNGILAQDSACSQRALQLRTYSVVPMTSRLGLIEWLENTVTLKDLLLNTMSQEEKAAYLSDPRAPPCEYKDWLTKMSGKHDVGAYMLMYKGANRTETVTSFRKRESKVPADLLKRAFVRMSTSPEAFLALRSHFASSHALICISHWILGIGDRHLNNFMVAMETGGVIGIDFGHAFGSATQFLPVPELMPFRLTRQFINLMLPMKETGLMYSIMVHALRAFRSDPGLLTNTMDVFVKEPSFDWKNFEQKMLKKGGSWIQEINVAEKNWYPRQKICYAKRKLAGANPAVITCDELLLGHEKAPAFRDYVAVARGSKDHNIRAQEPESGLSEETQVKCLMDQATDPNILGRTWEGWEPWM
Assay: Affinity for DNA-dependent protein kinase(DNA-PK) from HeLa cell extract
endpoint-label: Ki (µM)
Give bare numbers, in µM.

The recorded Ki for entry O=c1cc(N2CCOCC2)oc2c(-c3ccccc3)cccc12 equals 6

Values compiled from ChEMBL document CHEMBL1136213.
